target: human ferroportin (Homo sapiens, UniProt Q9NP59); assay: ferroportin internalization assay (inhibition of hepcidin-induced internalization of Fpn); settings: MDCK-FPN-HaloTag cells, 100 nM hepcidin, overnight incubation; concentration range from 0.04 to 40 μM
experimentalReadout: IC50 (nM)

[
  {
    "compound": "COc1cc(NS(=O)(=O)c2ccc(Cl)cc2F)c2ncccc2c1",
    "readoutUnits": "nM",
    "IC50": 1750
  },
  {
    "compound": "O=S(=O)(Nc1cccc2cccnc12)c1cccc(C(F)(F)F)c1",
    "readoutUnits": "nM",
    "IC50": 720
  }
]

I = O=S(=O)(Nc1cccc2cccnc12)c1ccc(C(F)(F)F)nc1
II = O=S(=O)(Nc1cccc2cccnc12)c1ccc(Cl)cc1Cl
III = CN1C(c2ccc(F)cn2)c2ccc3cccnc3c2NS1(=O)=O (centres unmarked)
Prompt: Sort low-to-high on IC50, please. To answer, arrange all of the labels according to the requested order.
Response: II, III, I
(II: 989 nM, III: 1570 nM, I: 3690 nM)

---

target: human ferroportin (Homo sapiens, UniProt Q9NP59); test: ferroportin internalization assay (inhibition of hepcidin-induced internalization of Fpn); details: MDCK-FPN-HaloTag cells, 100 nM hepcidin, overnight incubation; concentration range from 0.04 to 40 μM
experimentalReadout: IC50 (µM)

[
  {
    "compound": "O=S(=O)(Nc1cc(OC(F)(F)F)cc2cccnc12)c1ccccc1",
    "targetDesc": "human ferroportin (Homo sapiens, UniProt Q9NP59)",
    "IC50 (µM)": 9
  },
  {
    "compound": "O=S1(=O)Nc2c(cc(C(F)(F)F)c3cccnc23)-c2ccccc21",
    "targetDesc": "human ferroportin (Homo sapiens, UniProt Q9NP59)",
    "IC50 (µM)": 14.1
  },
  {
    "compound": "Cc1c(F)cccc1S(=O)(=O)Nc1cccc2cccnc12",
    "targetDesc": "human ferroportin (Homo sapiens, UniProt Q9NP59)",
    "IC50 (µM)": 1.5
  },
  {
    "compound": "CN1C(c2ccc(OC(F)(F)F)cc2)c2ccc3cccnc3c2NS1(=O)=O (stereo not drawn)",
    "targetDesc": "human ferroportin (Homo sapiens, UniProt Q9NP59)",
    "IC50 (µM)": 1.15
  },
  {
    "compound": "O=C(NCCN1CCCCC1)c1ccnc2c3c(ccc12)-c1ccccc1S(=O)(=O)N3",
    "targetDesc": "human ferroportin (Homo sapiens, UniProt Q9NP59)",
    "IC50 (µM)": 2
  },
  {
    "compound": "CC(C)C(=O)Nc1ccccc1S(=O)(=O)Nc1cccc2cccnc12",
    "targetDesc": "human ferroportin (Homo sapiens, UniProt Q9NP59)",
    "IC50 (µM)": 24.6
  }
]

A = CN(C)C(=O)c1ccc2c(c1)-c1cc(Cl)c3cccnc3c1NS2(=O)=O
B = CN(C)CCNC(=O)c1cc(C2c3ccc4cccnc4c3NS(=O)(=O)N2C)ccc1F (stereo not drawn)
Prompt: Response body: label of entry with the larger IC50; valid values A , B . Give the label of your selection.
Response: B

---

Target: human ferroportin (Homo sapiens, UniProt Q9NP59)
Sequence (Q9NP59 1-571): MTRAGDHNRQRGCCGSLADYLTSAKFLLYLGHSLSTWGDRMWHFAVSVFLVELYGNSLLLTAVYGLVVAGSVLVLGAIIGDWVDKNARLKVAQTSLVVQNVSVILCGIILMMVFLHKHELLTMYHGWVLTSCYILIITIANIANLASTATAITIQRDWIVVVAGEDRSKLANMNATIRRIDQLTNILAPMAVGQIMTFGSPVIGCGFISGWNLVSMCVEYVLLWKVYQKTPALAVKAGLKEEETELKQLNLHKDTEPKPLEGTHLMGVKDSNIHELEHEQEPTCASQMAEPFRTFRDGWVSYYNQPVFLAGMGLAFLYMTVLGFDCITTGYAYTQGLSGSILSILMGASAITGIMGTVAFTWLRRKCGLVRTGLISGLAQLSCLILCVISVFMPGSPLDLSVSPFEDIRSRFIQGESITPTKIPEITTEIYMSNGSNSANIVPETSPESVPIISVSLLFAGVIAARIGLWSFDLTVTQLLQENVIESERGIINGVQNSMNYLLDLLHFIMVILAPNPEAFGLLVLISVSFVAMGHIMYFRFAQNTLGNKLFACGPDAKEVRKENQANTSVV
Test: ferroportin internalization assay (inhibition of hepcidin-induced internalization of Fpn)
Details: MDCK-FPN-HaloTag cells, 100 nM hepcidin, overnight incubation; concentration range from 0.04 to 40 μM
pIC50: −log10 of the molar value.
experimentalReadout: pIC50

Some solved cases for reference:
[
  {
    "compound": "COc1ccnc2c3c(ccc12)-c1cc(C(F)(F)F)ccc1S(=O)(=O)N3",
    "pIC50": 6.01
  },
  {
    "compound": "Cc1ccc(S(=O)(=O)Nc2cccc3cccnc23)cc1",
    "pIC50": 4.30
  },
  {
    "compound": "Cc1cnc2c(NS(=O)(=O)c3ccc(C(F)(F)F)cc3N)cccc2c1",
    "pIC50": 5.52
  },
  {
    "compound": "N#Cc1ccc(S(=O)(=O)Nc2cccc3cccnc23)cn1",
    "pIC50": 5.37
  },
  {
    "compound": "CN(C)CCNCc1cc(C2c3ccc4cccnc4c3NS(=O)(=O)N2C)ccc1F (stereo not drawn)",
    "pIC50": 5.13
  },
  {
    "compound": "Cc1c(Cl)cccc1S(=O)(=O)Nc1cccc2cccnc12",
    "pIC50": 5.40
  },
  {
    "compound": "CN(C)CCN(C)c1cc2c(c3ncccc13)NS(=O)(=O)c1ccccc1-2",
    "pIC50": 5.30
  }
]

P = O=S(=O)(Nc1cc(F)cc2cccnc12)c1cccnc1
Q = O=C(Nc1ccccc1S(=O)(=O)Nc1cccc2cccnc12)C(F)(F)F
Prompt: # returns the entry with the larger pIC50; inputs P and Q Respond using the label that marks the chosen record.
Response: Q

---

target: human ferroportin (Homo sapiens, UniProt Q9NP59); test: ferroportin internalization assay (inhibition of hepcidin-induced internalization of Fpn); conditions: MDCK-FPN-HaloTag cells, 100 nM hepcidin, overnight incubation; concentration range from 0.04 to 40 μM
experimentalReadout: IC50 (µM)

Answered examples (2):
[
  {
    "molecule": "O=S1(=O)Nc2c(cc(N3CCCC3)c3cccnc23)-c2ccccc21 [Example 553]",
    "targetDesc": "human ferroportin (Homo sapiens, UniProt Q9NP59)",
    "readoutUnits": "µM",
    "quantitativeReadout": 4.36
  },
  {
    "molecule": "O=S1(=O)Nc2c(cc(Cl)c3cccnc23)-c2cc(N3CCC(O)CC3)ccc21 [Example 504]",
    "targetDesc": "human ferroportin (Homo sapiens, UniProt Q9NP59)",
    "readoutUnits": "µM",
    "quantitativeReadout": 1.1
  }
]

A = COc1ccc(S(=O)(=O)Nc2cccc3cccnc23)c([N+](=O)[O-])c1 [Example 34]
B = Cc1ccc(S(=O)(=O)Nc2cccc3cccnc23)nc1 [Example 227]
C = NC(=O)c1ccnc2c(NS(=O)(=O)c3ccccc3)cccc12 [Example 539]
Prompt: // ranking: key=IC50, reverse=True Respond with an ordered listing of the labels, as requested.
Response: C, A, B
(C: 10.4 µM, A: 1.81 µM, B: 0.38 µM)

---

Biological target: human ferroportin (Homo sapiens)
Assay: ferroportin internalization assay (inhibition of hepcidin-induced internalization of Fpn)
Details: MDCK-FPN-HaloTag cells, 100 nM hepcidin, overnight incubation; concentration range from 0.04 to 40 μM
Description: The hepcidin-antagonistic action of the sulfonaminoquinoline compounds of the present invention was determined by means of the “ferroportin internalization assay” described in the following. Organic compounds of low molecular weight which counteract the biological actions of hepcidin on its receptor, the iron exporter ferroportin (Fpn), were identified on the basis of their ability to inhibit hepcidin-induced internalization of Fpn in living cells. […]
experimentalReadout: IC50 (µM)

[
  {
    "compound": "CNC(=O)c1ccnc2c(NS(=O)(=O)c3ccccc3)cccc12",
    "targetDesc": "human ferroportin (Homo sapiens)",
    "IC50 [µM]": 6.24
  }
]

a = COC(=O)c1ccc2c(c1)-c1ccc3cccnc3c1NS2(=O)=O
b = COc1cc2c(c3ncccc13)NS(=O)(=O)c1ccccc1-2
Prompt: Return label of the item with the larger IC50. Candidates: a , b . # respond with the chosen item's label
Response: a

---

Molecular target: human ferroportin (Homo sapiens)
Sequence (Q9NP59 1-571): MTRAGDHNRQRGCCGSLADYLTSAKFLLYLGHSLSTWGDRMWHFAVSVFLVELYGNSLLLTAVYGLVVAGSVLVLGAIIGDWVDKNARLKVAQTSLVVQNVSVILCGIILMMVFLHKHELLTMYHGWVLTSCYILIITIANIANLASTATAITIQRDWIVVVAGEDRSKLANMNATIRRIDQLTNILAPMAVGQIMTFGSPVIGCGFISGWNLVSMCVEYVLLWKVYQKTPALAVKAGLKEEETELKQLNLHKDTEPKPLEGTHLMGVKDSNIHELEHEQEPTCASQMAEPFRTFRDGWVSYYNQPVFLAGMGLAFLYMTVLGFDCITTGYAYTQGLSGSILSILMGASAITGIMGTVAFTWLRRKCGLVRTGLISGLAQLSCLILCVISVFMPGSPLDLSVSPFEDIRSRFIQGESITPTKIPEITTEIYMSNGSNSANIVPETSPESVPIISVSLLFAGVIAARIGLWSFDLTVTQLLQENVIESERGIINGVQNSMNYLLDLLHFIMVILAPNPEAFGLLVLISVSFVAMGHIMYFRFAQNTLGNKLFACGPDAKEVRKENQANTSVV
Assay: ferroportin internalization assay (inhibition of hepcidin-induced internalization of Fpn)
Conditions: MDCK-FPN-HaloTag cells, 100 nM hepcidin, overnight incubation; concentration range from 0.04 to 40 μM
Protocol: The hepcidin-antagonistic action of the sulfonaminoquinoline compounds of the present invention was determined by means of the “ferroportin internalization assay” described in the following. Organic compounds of low molecular weight which counteract the biological actions of hepcidin on its receptor, the iron exporter ferroportin (Fpn), were identified on the basis of their ability to inhibit hepcidin-induced internalization of Fpn in living cells. […]
pIC50: −log10 of the molar value.
experimentalReadout: pIC50

Answered cases to consult:
[
  {
    "compound": "O=S(=O)(Nc1cccc2cccnc12)c1ccc(Cl)cc1 [Example 5]",
    "experimentalReadout": "pIC50",
    "quantitativeReadout": 5.49
  },
  {
    "compound": "COC(=O)c1ccccc1S(=O)(=O)Nc1cccc2cccnc12 [Example 39]",
    "experimentalReadout": "pIC50",
    "quantitativeReadout": 4.24
  },
  {
    "compound": "N#Cc1ccc(S(=O)(=O)Nc2cc(F)cc3cccnc23)cn1 [Example 239]",
    "experimentalReadout": "pIC50",
    "quantitativeReadout": 5.43
  }
]

1 = Nc1cc(F)ccc1S(=O)(=O)Nc1cccc2cccnc12 [Example 31]
2 = CN1C(c2cccc(F)c2)c2ccc3cccnc3c2NS1(=O)=O (centres unmarked) [Example 389]
Prompt: Between the entries labelled 1 and 2 , which has a larger pIC50 value on record? // caller expects the label of the chosen entry
Response: 2
